experiment: Cytotoxicity against human MT4 cells assessed as reduction in cell viability treated for 5 days by MTT assay; format: toxicity, cell-based; settings: time 5 day
// reported CC50 at 120 h for each item listed
Form entry: value (µM) — number only.

# SMILES_DATA, READOUT_VALUE
rows = [
    ("CC(=O)c1ccc(-c2cnc(NC3CCN(Cc4ccc(C(N)=O)cc4)CC3)nc2Oc2c(C)cc(/C=C/C#N)cc2C)cc1", 11.1),
]

Now turn to the next compound.
// CC50 at 120 h lookup, key: Cc1cc(/C=C/C#N)cc(C)c1Oc1nc(NC2CCN(Cc3ccc(C(N)=O)cc3)CC2)ncc1-c1ccccc1F
10.5

---

assay: Selectivity index, ratio of CC50 for human MT4 cells to EC50 for NNRTI-resistant HIV-1 RES056 infected in human MT4 cells; assay type: toxicity, cell-based; details: read-out: Selectivity Index
Each record's class is read off its selectivity ratio using these ranges: bottom end: < 90; midrange: ≥ 90 and < 200; top end: ≥ 200

# SMILES_DATA, CLASS
measured = [
    ("Cc1cc(/C=C/C#N)cc(C)c1Oc1nc(NC2CCN(Cc3ccc(S(C)(=O)=O)cc3)CC2)ncc1-c1ccc(O)cc1", "midrange"),
    ("Cc1cc(/C=C/C#N)cc(C)c1Oc1nc(NC2CCN(Cc3ccc(S(C)(=O)=O)cc3)CC2)ncc1-c1ccc2c(c1)OCO2", "bottom end"),
]

Looking at Cc1cc(/C=C/C#N)cc(C)c1Oc1nc(NC2CCN(Cc3ccc(S(N)(=O)=O)cc3)CC2)ncc1-c1ccc(O)cc1 , which class would you pick?
midrange

Repeat for the following compound: Cc1cc(/C=C/C#N)cc(C)c1Oc1nc(NC2CCN(Cc3ccc(C(N)=O)cc3)CC2)ncc1-c1ccc2c(c1)OCO2
midrange

---

molecular target: Cytochrome P450 2C19 (Homo sapiens)
Sequence (P33261 whole entry): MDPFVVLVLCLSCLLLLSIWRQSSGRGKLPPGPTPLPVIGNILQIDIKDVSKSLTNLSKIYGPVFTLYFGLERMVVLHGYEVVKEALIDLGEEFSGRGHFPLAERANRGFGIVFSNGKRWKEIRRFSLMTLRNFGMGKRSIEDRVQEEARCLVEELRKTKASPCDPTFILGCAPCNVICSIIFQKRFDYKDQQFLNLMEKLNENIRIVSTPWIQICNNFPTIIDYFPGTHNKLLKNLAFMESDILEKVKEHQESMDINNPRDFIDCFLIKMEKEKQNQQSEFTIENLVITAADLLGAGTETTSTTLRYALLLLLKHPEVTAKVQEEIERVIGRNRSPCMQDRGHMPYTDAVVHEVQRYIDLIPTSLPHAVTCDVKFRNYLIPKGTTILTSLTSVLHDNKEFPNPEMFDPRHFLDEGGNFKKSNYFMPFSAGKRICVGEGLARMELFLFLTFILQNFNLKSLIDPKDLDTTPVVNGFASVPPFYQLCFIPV
pIC50: −log10 of the molar value.
PROPERTY_MEASURED: pIC50

# SMILES_DATA, PROPERTY_MEASURED, READOUT_VALUE
data = [
    ("Cc1cc(/C=C/C#N)cc(C)c1Cc1nc(NC2CCN(Cc3ccc(S(C)(=O)=O)cc3)CC2)ncc1-c1cncnc1", "pIC50", "< 4.30"),
]

Then this molecule:
What does the record list as pIC50 for Cc1cc(/C=C/C#N)cc(C)c1Cc1nc(NC2CCN(Cc3ccc(C(N)=O)cc3)CC2)ncc1-c1cncnc1 ?
< 4.30

---

pEC50 listing for selected compounds.
tested on: Human immunodeficiency virus 1; experiment: Antiviral activity against HIV-1 harboring K103N mutant infected in human MT4 cells assessed as virus-induced cytopathicity treated for 5 days by MTT assay; assay type: functional, organism-based; conditions: Human immunodeficiency virus 1, MT4, 120 h; read-out: EC50
Reminder that pEC50 means the negative base-10 logarithm of the concentration expressed in mol/L.

Study these solved cases before continuing.
# SMILES_DATA, pEC50
measured = [
    ("Cc1cc(/C=C/C#N)cc(C)c1Oc1nc(NC2CCN(Cc3ccc(S(C)(=O)=O)cc3)CC2)ncc1-c1ccc(N)cc1", 8.31),
    ("Cc1cc(/C=C/C#N)cc(C)c1Oc1nc(NC2CCN(Cc3ccc(S(N)(=O)=O)cc3)CC2)ncc1-c1cccc(N)c1", 8.21),
    ("Cc1cc(/C=C/C#N)cc(C)c1Oc1nc(NC2CCN(Cc3ccc(C(N)=O)cc3)CC2)ncc1-c1cccc(N)c1", 8.25),
    ("Cc1cc(/C=C/C#N)cc(C)c1Oc1nc(NC2CCN(Cc3ccc(S(N)(=O)=O)cc3)CC2)ncc1-c1ccc(O)cc1", 8.38),
    ("Cc1cc(/C=C/C#N)cc(C)c1Cc1nc(NC2CCN(Cc3ccc(S(N)(=O)=O)cc3)CC2)ncc1-c1cncnc1", 8.30),
]

Test system Human immunodeficiency virus 1; read-out pEC50; what value for Cc1cc(/C=C/C#N)cc(C)c1Oc1nc(NC2CCN(Cc3ccc(C(N)=O)cc3)CC2)ncc1-c1cccc(O)c1 ?
8.27
